Molecular target: KMO mouse enzyme (Mus musculus)
Construct: KMO enzyme prepared at Evotec from mouse liver (4-6 weeks old) via mitochondria isolation; from tissue; host or cells: mouse liver (4-6 weeks old), mitochondria isolation, prepared at Evotec
Sequence (Q91WN4 whole entry): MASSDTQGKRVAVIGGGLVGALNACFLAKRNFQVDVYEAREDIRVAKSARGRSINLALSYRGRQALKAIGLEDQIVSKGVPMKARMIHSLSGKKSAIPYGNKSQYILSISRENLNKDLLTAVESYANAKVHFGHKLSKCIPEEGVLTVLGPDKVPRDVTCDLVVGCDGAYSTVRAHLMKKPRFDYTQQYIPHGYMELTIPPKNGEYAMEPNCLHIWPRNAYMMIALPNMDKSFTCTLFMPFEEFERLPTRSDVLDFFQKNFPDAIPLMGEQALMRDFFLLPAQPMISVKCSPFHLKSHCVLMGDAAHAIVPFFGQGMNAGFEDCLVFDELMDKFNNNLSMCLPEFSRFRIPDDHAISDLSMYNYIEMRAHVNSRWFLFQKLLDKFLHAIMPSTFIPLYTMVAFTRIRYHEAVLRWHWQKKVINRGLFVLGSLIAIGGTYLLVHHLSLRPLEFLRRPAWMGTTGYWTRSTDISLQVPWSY
Assay: KMO mouse enzyme assay: L-Kynurenine hydroxylation to 3-Hydroxy-Kynurenine monitored by LC/MS (MRM)
Assay type: biochemical
Details: compound at 10 μM; KMO enzyme from mouse liver mitochondria; read-out: INH.Mouse @ 10 μM
Where a name gives a salt, the structure may show the parent alone.
recorded-endpoint: inhibition at 10 µM (%)

- molecule: "CC(=O)N1CCN(C(=O)c2cc(-c3cccc(Cl)c3)ncn2)CC1"
  reading: 94.9
- molecule: "COC(=O)c1cc(-c2cc(Cl)cc(Cl)c2)ncn1"
  reading: 101
- molecule: "O=C(Nc1ccccc1)c1cc(-c2cccc(Cl)c2)ncn1"
  reading: 100
- molecule: "O=C(c1cc(-c2ccc(Cl)c(Cl)c2)ccn1)N1CCc2ccccc21"
  reading: 96.6
- molecule: "O=C(c1cc(-c2cccc(Cl)c2)ccn1)N1CCc2ccccc21"
  reading: 100
- molecule: "COC(=O)c1cc(-c2cccnc2)ncn1 [trifluoroacetic acid salt]"
  reading: 74.5
- molecule: "O=C(c1cc(-c2cccc(Cl)c2)ncn1)N1CC[C@H](O)C1"
  reading: 84.9

* * *

This listing pairs compounds with measured inhibition at 10 µM.
Target: KMO mouse enzyme (Mus musculus)
Construct: KMO enzyme prepared at Evotec from mouse liver (4-6 weeks old) via mitochondria isolation; from tissue; host or cells: mouse liver (4-6 weeks old), mitochondria isolation, prepared at Evotec
Test: KMO mouse enzyme assay: L-Kynurenine hydroxylation to 3-Hydroxy-Kynurenine monitored by LC/MS (MRM)
Format: biochemical
Details: compound at 10 μM; KMO enzyme from mouse liver mitochondria; read-out: INH.Mouse @ 10 μM

- smiles-record: "C[C@H](NC(=O)c1cc(-c2cccc(Cl)c2)ncn1)c1ccccc1"
  unit-info: "%"
  inhibition at 10 µM: 99.8
- smiles-record: "COC(=O)c1cc(-c2ccc(Cl)c(Cl)c2)nc(C)n1"
  unit-info: "%"
  inhibition at 10 µM: 95.5
- smiles-record: "Cc1ccc(NC(=O)c2cc(-c3cccc(Cl)c3)ncn2)cn1"
  unit-info: "%"
  inhibition at 10 µM: 85.3
- smiles-record: "O=C(Nc1ccccn1)c1cc(-c2ccc(Cl)c(Cl)c2)ncn1"
  unit-info: "%"
  inhibition at 10 µM: 100
- smiles-record: "Cc1cccc(NC(=O)c2cc(-c3cccc(Cl)c3)ncn2)c1"
  unit-info: "%"
  inhibition at 10 µM: 96.6
- smiles-record: "O=C(Nc1cccnc1)c1cc(-c2ccc(Cl)c(Cl)c2)ncn1"
  unit-info: "%"
  inhibition at 10 µM: 83.5
- smiles-record: "O=C(c1cc(-c2cccc(Cl)c2)ncn1)N1CCC1"
  unit-info: "%"
  inhibition at 10 µM: 100
- smiles-record: "O=C(Nc1ccccn1)c1cc(-c2cccc(Cl)c2)ncn1"
  unit-info: "%"
  inhibition at 10 µM: 100
- smiles-record: "Cc1ccc(NC(=O)c2cc(-c3cccc(Cl)c3)ccn2)cc1"
  unit-info: "%"
  inhibition at 10 µM: 85.6
- smiles-record: "O=C(c1cc(-c2cccc(Cl)c2)ncn1)N1CCCc2ccccc21"
  unit-info: "%"
  inhibition at 10 µM: 100
- smiles-record: "O=C(Nc1cccnc1)c1cc(-c2cccc(Cl)c2)ccn1"
  unit-info: "%"
  inhibition at 10 µM: 52.3
- smiles-record: "Cc1nnc(NC(=O)c2cc(-c3ccc(Cl)c(Cl)c3)ncn2)o1"
  unit-info: "%"
  inhibition at 10 µM: 100
- smiles-record: "O=C(Nc1cccnc1)c1cc(-c2cccc(F)c2)ncn1"
  unit-info: "%"
  inhibition at 10 µM: 94.8
- smiles-record: "O=C(Nc1cncnc1)c1cc(-c2cccc(Cl)c2)ncn1"
  unit-info: "%"
  inhibition at 10 µM: 100
- smiles-record: "CC1CCN(C(=O)c2cc(-c3cccc(Cl)c3)ncn2)CC1"
  unit-info: "%"
  inhibition at 10 µM: 88.2
- smiles-record: "O=C(Nc1nccs1)c1cc(-c2cccc(Cl)c2)ncn1"
  unit-info: "%"
  inhibition at 10 µM: 100
- smiles-record: "O=C(c1cc(-c2ccc(Cl)c(Cl)c2)ncn1)N1Cc2ccccc2C1"
  unit-info: "%"
  inhibition at 10 µM: 63.5
- smiles-record: "Cc1nnc(NC(=O)c2cc(-c3cccc(Cl)c3)ncn2)o1"
  unit-info: "%"
  inhibition at 10 µM: 100
- smiles-record: "COC(=O)c1cc(-c2cccc(Cl)c2)nc(C)n1"
  unit-info: "%"
  inhibition at 10 µM: 100
- smiles-record: "Cc1ccccc1NC(=O)c1cc(-c2cccc(Cl)c2)ncn1"
  unit-info: "%"
  inhibition at 10 µM: 96.2
- smiles-record: "Cc1noc(C)c1NC(=O)c1cc(-c2cccc(Cl)c2)ncn1"
  unit-info: "%"
  inhibition at 10 µM: 79
- smiles-record: "COC(=O)c1cc(-c2cccc(Cl)c2)ccn1"
  unit-info: "%"
  inhibition at 10 µM: 100
